Data origin: patent US20130251724A1

# Assay Target: T1, Cynomolgus OSM (cynomolgus, UniProt A0A2K5VPC6 26-221)
# T1 construct: also called Cyno OSM; cynomolgus macaque OSM
# T1 sequence: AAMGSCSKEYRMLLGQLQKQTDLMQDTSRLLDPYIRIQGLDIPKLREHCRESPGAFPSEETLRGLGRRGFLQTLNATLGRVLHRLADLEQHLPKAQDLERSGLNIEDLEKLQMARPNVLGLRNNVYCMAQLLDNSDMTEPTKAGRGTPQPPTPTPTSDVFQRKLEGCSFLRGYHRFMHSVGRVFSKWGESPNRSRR
# Measurement Protocol: BIAcore kinetics
Entries and their kon

{"columns": ["Binder", "kon"],
 "data": [
  ["10G8 chimaera (antibody, human IgG1, kappa, V domains shown, Mouse V regions on human gamma 1 wild type and human kappa constant regions; the entries called VH/VL domain (chimera) are full chains; also called 10G8 chimera; 10G8 Chimæra) VH: EMQLVESGEGLVEPGGSLKLSCAASGFTFSNYAMSWVRQTPEKSLEWVATISDGGSFTYYLDNVRGRFTISRDNAKNNLYLQMSHLKSDDTAMYYCARDVGHTTFWYFDVWGSGTLVTVSS VL: DIVLTQSPVFLVVSLGQRATISCRASKSVSAAGYNFMHWYQQKPGQPPKVLIKYASNLESGVPARFSGSGSGTDFTLNIHPVEEEDAVTYYCLHSREFPFTFGGGTNLEIKR", "237000 M⁻¹ s⁻¹"],
  ["9G2, murine anti-OSM mAb (antibody, V domains shown, Mouse hybridoma mAb; also called 9G2/C1; 9G2.C1) VH: EVQLVESGGGLVEPGGSLKLSCAASGFTFSNYAMSWVRQTPEKRLEWVATISDGGSFTYYLDNVKGRFTISRDNAKNNLYLQMSHLKSDDTAMYYCARDVGHTTFWYFDVWGTGTTVTVSS VL: DIVLTQSPVFLVISLGQRATISCRASKSVSASGYNFMHWYQQKPGQPPKVLIKYASNLESGVPARFSGSGSGTDFTLNIHPVEEEDAVTYYCQHSREFPFTFGGGTKLEIK", "61400 M⁻¹ s⁻¹"],
  ["9G2 chimaera (antibody, human IgG1, kappa, V domains shown, Mouse V regions on human gamma 1 wild type and human kappa constant regions; also called 9G2 chimera) VH: EVQLVESGGGLVEPGGSLKLSCAASGFTFSNYAMSWVRQTPEKRLEWVATISDGGSFTYYLDNVKGRFTISRDNAKNNLYLQMSHLKSDDTAMYYCARDVGHTTFWYFDVWGTGTLVTVSS VL: DIVLTQSPVFLVISLGQRATISCRASKSVSASGYNFMHWYQQKPGQPPKVLIKYASNLESGVPARFSGSGSGTDFTLNIHPVEEEDAVTYYCQHSREFPFTFGGGTKLEIKR", "127000 M⁻¹ s⁻¹"],
  ["anti human OSM mAb S168110G08(1)1A09 (10G8), murine (antibody, V domains shown, Mouse hybridoma mAb; also called 10G8/A9; 10G8.A9) VH: EMQLVESGEGLVEPGGSLKLSCAASGFTFSNYAMSWVRQTPEKSLEWVATISDGGSFTYYLDNVRGRFTISRDNAKNNLYLQMSHLKSDDTAMYYCARDVGHTTFWYFDVWGSGTAVTVSS VL: DIVLTQSPVFLVVSLGQRATISCRASKSVSAAGYNFMHWYQQKPGQPPKVLIKYASNLESGVPARFSGSGSGTDFTLNIHPVEEEDAVTYYCLHSREFPFTFGGGTNLEIK", "96900 M⁻¹ s⁻¹"]
]}
